Give IC50 for every item shown.
# output: bare number, implied unit nM

Provide IC50, system PARP-1 (Homo sapiens, UniProt P09874), entry Cc1nc2c(O)cccc2c(=O)[nH]1 [NU1025, reference compound]
400

Provide IC50, system PARP-1 (Homo sapiens, UniProt P09874), entry CC(=O)Nc1cccc(Cn2c(=O)[nH]c(=O)c3ccccc32)c1 [Compound 3]
160

Provide IC50, system PARP-1 (Homo sapiens, UniProt P09874), entry CCc1ccc(-c2nc3cccc4c3n2CCNC4=O)cc1 [Compound 4]
65

====

# measurement_target: PARP-2 (Homo sapiens)
# Construct: purchased Trevigan (Gaithersburg, MD, USA)
# Sequence (Q9UGN5 whole entry): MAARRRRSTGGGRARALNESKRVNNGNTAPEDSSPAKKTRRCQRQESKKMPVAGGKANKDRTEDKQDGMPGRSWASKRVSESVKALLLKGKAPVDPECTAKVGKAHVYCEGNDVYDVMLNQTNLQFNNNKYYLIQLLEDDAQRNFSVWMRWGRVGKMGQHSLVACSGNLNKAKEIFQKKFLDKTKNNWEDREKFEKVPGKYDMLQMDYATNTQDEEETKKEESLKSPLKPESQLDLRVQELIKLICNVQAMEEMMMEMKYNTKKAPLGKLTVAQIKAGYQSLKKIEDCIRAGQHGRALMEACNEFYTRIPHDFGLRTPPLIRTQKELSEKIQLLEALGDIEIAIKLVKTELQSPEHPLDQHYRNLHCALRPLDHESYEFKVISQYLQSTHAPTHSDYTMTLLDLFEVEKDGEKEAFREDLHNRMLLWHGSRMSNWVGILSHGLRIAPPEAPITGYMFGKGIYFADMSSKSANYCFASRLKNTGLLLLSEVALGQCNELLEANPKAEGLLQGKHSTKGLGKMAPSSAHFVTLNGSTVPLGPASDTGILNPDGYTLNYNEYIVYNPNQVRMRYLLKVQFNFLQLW
# experiment_notes: In vitro PARP inhibition assay (PARP-2)
# Assay type: biochemical
# condition: Table 4; read-out: PARP-2
pIC50: −log10 of the molar value.
assay_metric: pIC50

Supply pIC50 value. Item: CCc1ccc(-c2nc3cccc4c3n2CCNC4=O)cc1 [Compound 4]
< 4.46

Source listed as paper PMC6930522.
